- measurement.target: Neurogenic locus notch homolog protein 2 (Homo sapiens) (UniProt Q04721)
- Sequence (Q04721 whole entry, looked up): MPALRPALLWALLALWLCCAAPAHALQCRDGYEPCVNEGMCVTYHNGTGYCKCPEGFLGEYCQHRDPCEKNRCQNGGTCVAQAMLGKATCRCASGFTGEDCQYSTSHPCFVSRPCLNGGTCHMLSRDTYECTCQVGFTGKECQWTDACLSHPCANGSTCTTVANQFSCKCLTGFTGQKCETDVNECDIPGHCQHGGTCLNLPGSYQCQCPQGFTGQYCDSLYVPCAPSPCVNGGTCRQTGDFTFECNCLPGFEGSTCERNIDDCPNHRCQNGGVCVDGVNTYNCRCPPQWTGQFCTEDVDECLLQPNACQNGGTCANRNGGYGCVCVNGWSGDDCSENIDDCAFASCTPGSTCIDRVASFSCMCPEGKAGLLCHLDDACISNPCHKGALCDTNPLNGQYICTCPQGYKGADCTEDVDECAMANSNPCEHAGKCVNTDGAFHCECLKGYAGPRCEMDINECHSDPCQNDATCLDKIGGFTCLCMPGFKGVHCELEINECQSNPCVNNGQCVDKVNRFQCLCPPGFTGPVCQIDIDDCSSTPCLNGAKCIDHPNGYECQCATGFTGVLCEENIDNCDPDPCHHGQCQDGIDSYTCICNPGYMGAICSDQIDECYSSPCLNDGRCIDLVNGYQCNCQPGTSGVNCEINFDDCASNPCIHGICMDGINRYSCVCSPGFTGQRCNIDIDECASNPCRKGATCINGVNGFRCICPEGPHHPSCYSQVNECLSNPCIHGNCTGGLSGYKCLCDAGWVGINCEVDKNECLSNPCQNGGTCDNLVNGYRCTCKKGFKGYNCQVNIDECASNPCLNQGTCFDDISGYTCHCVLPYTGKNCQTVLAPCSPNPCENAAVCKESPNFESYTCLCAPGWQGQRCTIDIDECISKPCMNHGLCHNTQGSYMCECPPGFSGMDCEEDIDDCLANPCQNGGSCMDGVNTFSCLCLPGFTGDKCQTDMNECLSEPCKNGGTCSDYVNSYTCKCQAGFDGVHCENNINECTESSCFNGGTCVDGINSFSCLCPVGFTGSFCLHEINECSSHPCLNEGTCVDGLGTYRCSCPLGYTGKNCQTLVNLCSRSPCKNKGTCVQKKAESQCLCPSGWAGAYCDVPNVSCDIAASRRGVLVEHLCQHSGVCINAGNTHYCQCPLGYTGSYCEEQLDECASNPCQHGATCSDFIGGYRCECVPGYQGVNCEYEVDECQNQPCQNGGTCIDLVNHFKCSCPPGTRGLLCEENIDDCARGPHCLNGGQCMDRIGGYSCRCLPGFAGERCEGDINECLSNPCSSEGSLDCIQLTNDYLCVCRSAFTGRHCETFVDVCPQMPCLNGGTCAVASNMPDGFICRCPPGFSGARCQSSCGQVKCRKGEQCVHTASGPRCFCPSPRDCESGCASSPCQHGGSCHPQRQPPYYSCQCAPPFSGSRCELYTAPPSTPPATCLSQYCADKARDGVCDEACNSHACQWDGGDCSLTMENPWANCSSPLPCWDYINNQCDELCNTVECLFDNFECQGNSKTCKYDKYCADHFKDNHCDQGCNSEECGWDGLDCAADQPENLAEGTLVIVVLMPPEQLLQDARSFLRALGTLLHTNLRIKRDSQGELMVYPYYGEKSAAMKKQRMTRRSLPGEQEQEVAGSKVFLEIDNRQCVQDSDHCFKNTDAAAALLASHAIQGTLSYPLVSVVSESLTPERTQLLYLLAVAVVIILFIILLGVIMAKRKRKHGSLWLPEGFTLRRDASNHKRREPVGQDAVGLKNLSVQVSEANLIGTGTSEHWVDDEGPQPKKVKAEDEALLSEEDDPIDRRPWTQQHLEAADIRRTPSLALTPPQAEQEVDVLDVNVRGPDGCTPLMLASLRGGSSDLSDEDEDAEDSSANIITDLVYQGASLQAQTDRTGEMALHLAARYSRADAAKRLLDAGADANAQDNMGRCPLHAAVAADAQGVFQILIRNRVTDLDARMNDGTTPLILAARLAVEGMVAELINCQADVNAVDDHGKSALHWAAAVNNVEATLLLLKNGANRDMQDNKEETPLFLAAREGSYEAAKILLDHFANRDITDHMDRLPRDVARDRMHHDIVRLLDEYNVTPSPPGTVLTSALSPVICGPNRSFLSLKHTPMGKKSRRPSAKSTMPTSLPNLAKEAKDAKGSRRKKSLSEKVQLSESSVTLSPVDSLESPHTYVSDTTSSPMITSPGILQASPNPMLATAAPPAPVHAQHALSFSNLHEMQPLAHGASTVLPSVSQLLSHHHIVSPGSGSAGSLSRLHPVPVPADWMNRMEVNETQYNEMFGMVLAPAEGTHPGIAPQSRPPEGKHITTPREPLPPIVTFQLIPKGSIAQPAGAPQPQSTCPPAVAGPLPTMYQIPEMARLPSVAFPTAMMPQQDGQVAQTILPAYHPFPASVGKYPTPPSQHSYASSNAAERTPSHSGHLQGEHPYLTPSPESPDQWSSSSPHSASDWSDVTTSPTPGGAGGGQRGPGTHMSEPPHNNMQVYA
- method: small molecules binding Notch2 protein – biochemical, small-molecule microarray, 635 nm fluorescence, stem cell growth factors, primary screen (AID 1073)
- condition.info: higher = more signal
Note to self: values exactly at 0.7 are satisfied. So composite z-score at or above 0.7 is satisfied, below is not satisfied.

## Task Does CCCCC(O)C1C=CC2C(=O)N(C)C(=O)C2N1N(c1ccccc1)c1ccccc1 (configuration not stated) have a reported composite z-score of at least 0.7?
## Result satisfied

## Task Does COc1ccc(C#Cc2ccc3c(c2)[C@]2(C(=O)N3)[C@H](C(=O)O)[C@H]3C(=O)O[C@H](c4ccccc4)[C@H](c4ccccc4)N3[C@@H]2c2ccc(O)cc2)cc1 have a reported composite z-score of at least 0.7?
## Result not satisfied

## Task Does [N-]=[N+]=Nc1ccccc1C[C@]1(C(=O)NCCN2CCOCC2)COC(c2ccc(OCCCO)cc2)=N1 have a reported composite z-score of at least 0.7?
## Result satisfied

## Task Does COc1ccc([Si](C)(C)[C@@H]2[C@@H](CCO)O[C@]3(C(=O)N(Cc4ccccc4)c4ccc(N5C(=O)c6cccc7cccc5c67)cc43)[C@H]2C)cc1 have a reported composite z-score of at least 0.7?
## Result not satisfied

## Task Does CN(C)C(=O)[C@@]1(Cc2ccccc2CN=[N+]=[N-])N=C(c2ccc(OCCCO)cc2)O[C@H]1c1ccccc1N=[N+]=[N-] have a reported composite z-score of at least 0.7?
## Result satisfied

## Task Does COCCCNC(=O)[C@@]1(Sc2ccc(C)cc2)CC(=O)N(C2Cc3ccccc3C2)[C@@H]1c1ccc(CO)cc1 have a reported composite z-score of at least 0.7?
## Result not satisfied

## Task Does COCCCNC(=O)[C@@]1(CCC(=O)OC(C)(C)C)N=C(c2ccc(OCCCO)cc2)O[C@H]1c1ccccc1N=[N+]=[N-] have a reported composite z-score of at least 0.7?
## Result satisfied

## Task Does C=CCN1Cc2ccccc2[C@@H]2OC(c3ccc(OCCCO)cc3)=N[C@]2(CC=C)C1=O have a reported composite z-score of at least 0.7?
## Result satisfied

## Task Does COCCOC(=O)N1C(=O)[C@@]2(c3cc(C#CCC(C(=O)OC)C(=O)OC)ccc31)[C@H](c1ccc(OCCO)cc1)N1[C@H](c3ccccc3)[C@H](c3ccccc3)OC(=O)[C@H]1[C@@H]2C(=O)N1CCc2cc(OC)c(OC)cc2C1 have a reported composite z-score of at least 0.7?
## Result satisfied

## Task Does COCCOC(=O)N1C(=O)[C@@]2(c3cc(C#CCCO)ccc31)[C@H](c1ccc(OCCO)cc1)N1[C@H](c3ccccc3)[C@H](c3ccccc3)OC(=O)[C@H]1[C@@H]2C(=O)Nc1nc2ccccc2s1 have a reported composite z-score of at least 0.7?
## Result not satisfied

## Task Does COc1ccc(C#Cc2ccc3c(c2)[C@]2(C(=O)N3)[C@H](c3ccc(O)cc3)N3[C@H](c4ccccc4)[C@H](c4ccccc4)OC(=O)[C@H]3[C@@H]2C(=O)Nc2nc3ccccc3s2)cc1 have a reported composite z-score of at least 0.7?
## Result satisfied

## Task Does C=CCC(OC(C)=O)[C@@H]1[C@@H](N(Cc2ccc(-c3cccc(C(F)(F)F)c3)o2)C(=O)c2ccc(-c3ccccc3)cc2)c2cc(OCCCO)ccc2N1C(=O)Cc1ccc2ccccc2c1 (some centres not stated) have a reported composite z-score of at least 0.7?
## Result not satisfied

## Task Does COC(=O)[C@@H]1N=C(c2ccc(OCCCO)cc2)O[C@@H]1c1ccccc1 have a reported composite z-score of at least 0.7?
## Result not satisfied

## Task Does [N-]=[N+]=NCc1ccccc1C[C@@]1(C(N)=O)N=C(c2ccc(OCCCO)cc2)O[C@@H]1c1ccccc1 have a reported composite z-score of at least 0.7?
## Result not satisfied

## Task Does CCCN1C(=O)[C@]2(Cc3ccccc31)N=C(c1ccc(OCCCO)cc1)O[C@@H]2c1ccccc1 have a reported composite z-score of at least 0.7?
## Result not satisfied

## Task Does COCCOC(=O)N1C(=O)[C@@]2(c3cc(C#CCCO)ccc31)[C@H](C(=O)Nc1nc3ccccc3s1)[C@H]1C(=O)O[C@H](c3ccccc3)[C@H](c3ccccc3)N1[C@@H]2c1ccc(O)cc1 have a reported composite z-score of at least 0.7?
## Result satisfied

## Task Does COC(=O)[C@@]1(Cc2ccccc2)[C@H]2c3cc(C(=O)N(C)C)n(Cc4ccc(C)o4)c3C[C@H]2CN1C(=O)c1ccccc1 have a reported composite z-score of at least 0.7?
## Result satisfied

## Task Does CCOC(=O)C[C@H]1[C@H](OC(=O)c2ccccc2-c2ccccc2)[C@@H](NC(=O)c2ccc3ccccc3n2)c2cc(OCCCO)ccc2N1C(=O)Cc1ccc(OC)cc1 have a reported composite z-score of at least 0.7?
## Result not satisfied

## Task Does CC[C@@H]1O[Si](C(C)C)(C(C)C)c2c1cc(-c1cc(C)c(OC)c(C)c1)nc2-c1ccc(Oc2ccccc2)cc1 have a reported composite z-score of at least 0.7?
## Result not satisfied

## Task Does COc1ccc([Si](C)(C)[C@H]2[C@H](CC(=O)N3CCC[C@H]3CO)O[C@@]3(C(=O)N(Cc4ccc(N5CCOC5=O)cc4)c4ccccc43)[C@@H]2C)cc1 have a reported composite z-score of at least 0.7?
## Result satisfied

## Task Does CCCCN1CC=CC23O[C@@H]4/C=C\CCC(C)OC(=O)C4[C@H]2C(=O)N(CCCO)[C@@H]3C1=O (some centres not stated) have a reported composite z-score of at least 0.7?
## Result not satisfied

## Task Does CC[C@@H]1C=C(C(=O)O)[C@H](c2ccc(C#N)cc2)N1S(=O)(=O)c1ccc(C)cc1 have a reported composite z-score of at least 0.7?
## Result satisfied

## Task Does CCOC(=O)C[C@H]1[C@H](OC(=O)c2ccc(C(=O)c3ccccc3)cc2)[C@@H](NC(=O)c2ccc3ccccc3n2)c2cc(OCCCO)ccc2N1C(=O)Cc1ccc(OC)cc1 have a reported composite z-score of at least 0.7?
## Result not satisfied

## Task Does CCCC#C[Si](O[C@H](CC)c1cn([C@H](C)c2ccccc2)nn1)(C(C)C)C(C)C have a reported composite z-score of at least 0.7?
## Result satisfied

## Task Does COc1ccc(CCNC(=O)[C@@]2(Sc3ccc(C)cc3)CC(=O)N(Cc3ccccc3C(F)(F)F)[C@@H]2c2ccc(CO)cc2I)cc1 have a reported composite z-score of at least 0.7?
## Result not satisfied

## Task Does COC(=O)C/C=C/C[C@]1(O)C(=O)N(C)c2ccccc21 have a reported composite z-score of at least 0.7?
## Result not satisfied

---

- method: probe aWnt5a binding to arrayed compounds – biochemical, biotinylated probe, 635/667 nm fluorescence, primary screen (AID 1113);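 note: score merges 667 nm fluorescence intensity with signal-to-noise per printed feature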
- condition.info: small-molecule microarray, higher = more signal
property.label: composite z-score
Would you mind answering with just the numeric figure?

## Task # return recorded composite z-score for input COC(=O)[C@@]1(Cc2ccc(OC)cc2)[C@H]2c3cc(C(=O)N(C)C)n(Cc4ccc(C)o4)c3C[C@H]2CN1C(=O)c1ccccc1
## Result 0.091

## Task # return recorded composite z-score for input CCCCN1CC=CC23O[C@@H]4/C=C\CCC(C)OC(=O)C4[C@H]2C(=O)N(CCCO)[C@@H]3C1=O (some centres undefined)
## Result -0.252

## Task # return recorded composite z-score for input Cc1ccc(N2C(=O)c3ccccc3[C@@H](C(=O)NCCCN(C)C)[C@@H]2c2ccc(CO)cc2)nc1
## Result -0.22

## Task # return recorded composite z-score for input COCCOC(=O)N1C(=O)[C@@]2(c3cc(C#CC4=CCCCC4)ccc31)[C@H](c1ccccc1OCCO)N1[C@H](c3ccccc3)[C@H](c3ccccc3)OC(=O)[C@H]1[C@@H]2C(=O)N1CCN(c2ncccn2)CC1
## Result -0.206

---

- method: small molecules captured by biotinylated probe aFST – biochemical, small-molecule microarray, fluorescence 635/667, stem cell growth factor project, primary screen (AID 1086);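 note: score merges 667 nm fluorescence with signal-to-noise of each printed compound spot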
- condition.info: higher = more signal
Grouping key: composite z-score. Bins: A: < -0.2; B: ≥ -0.2 and < 0.7; C: ≥ 0.7

## Task Using the reported composite z-score, which band applies to C=CCC(OC(C)=O)[C@@H]1[C@@H](N(Cc2cccc3ccccc23)C(=O)Cc2ccc(F)cc2)c2cc(OCCCO)ccc2N1C(=O)c1ccc2ccccc2c1 (some centres undefined) ?
## Result B

## Task Using the reported composite z-score, which band applies to CN(C)C(=O)[C@@]1(Cc2ccccc2)N=C(c2ccc(OCCCO)cc2)O[C@H]1c1ccccc1 ?
## Result C

## Task Using the reported composite z-score, which band applies to COc1cc2c(cc1O)C=[N+](Cc1sc3ccccc3c1Cl)CC2 ?
## Result B

## Task Using the reported composite z-score, which band applies to COCCOC(=O)N1C(=O)[C@@]2(c3cc(C#CC4=CCCCC4)ccc31)[C@H](c1ccccc1OCCO)N1[C@H](c3ccccc3)[C@H](c3ccccc3)OC(=O)[C@H]1[C@@H]2C(=O)NC[C@H](O)c1ccccc1 ?
## Result B

## Task Using the reported composite z-score, which band applies to CCCC#C[Si](O[C@H](CC)c1cn([C@H](C)c2ccccc2)nn1)(C(C)C)C(C)C ?
## Result B

## Task Using the reported composite z-score, which band applies to COCCOC(=O)N1C(=O)[C@@]2(c3ccccc31)[C@H](c1ccc(O)cc1)N1[C@H](c3ccccc3)[C@H](c3ccccc3)OC(=O)[C@H]1[C@@H]2C(=O)N1CCN(c2ncccn2)CC1 ?
## Result B

## Task Using the reported composite z-score, which band applies to C=CCNC(=O)[C@@H]1[C@H]2C(=O)O[C@H](c3ccccc3)[C@H](c3ccccc3)N2[C@H](c2ccccc2OCCO)[C@@]12C(=O)Nc1ccc(C#CCCO)cc12 ?
## Result C

## Task Using the reported composite z-score, which band applies to CCCCC[C@H]1OC[C@@]23C=C(Br)[C@@H](CC12)[C@@]1(CO1)C3=O (some centres undefined) ?
## Result A

## Task Using the reported composite z-score, which band applies to NC(=O)NCC#Cc1ccc2c(c1)[C@]1(C(=O)N2)[C@H](c2ccccc2OCCO)N2[C@H](c3ccccc3)[C@H](c3ccccc3)OC(=O)[C@H]2[C@@H]1C(=O)O ?
## Result A

## Task Using the reported composite z-score, which band applies to C=CC[C@@]1(C(=O)NCCCOC)N=C(c2ccc(OCCCO)cc2)O[C@@H]1c1ccccc1N=[N+]=[N-] ?
## Result C

## Task Using the reported composite z-score, which band applies to COc1ccccc1CN1C(=O)c2ccccc2[C@](Cc2ccccc2I)(C(=O)O)[C@@H]1c1ccc(CO)cc1 ?
## Result A

## Task Using the reported composite z-score, which band applies to CCCCCN1CC=CC23O[C@@H]4/C=C\CCCOC(=O)C4[C@H]2C(=O)N(C(C)CO)[C@@H]3C1=O (some centres undefined) ?
## Result A
